Molecular target: hSST-2 (Homo sapiens, UniProt P30874)
Sequence (P30874 whole entry): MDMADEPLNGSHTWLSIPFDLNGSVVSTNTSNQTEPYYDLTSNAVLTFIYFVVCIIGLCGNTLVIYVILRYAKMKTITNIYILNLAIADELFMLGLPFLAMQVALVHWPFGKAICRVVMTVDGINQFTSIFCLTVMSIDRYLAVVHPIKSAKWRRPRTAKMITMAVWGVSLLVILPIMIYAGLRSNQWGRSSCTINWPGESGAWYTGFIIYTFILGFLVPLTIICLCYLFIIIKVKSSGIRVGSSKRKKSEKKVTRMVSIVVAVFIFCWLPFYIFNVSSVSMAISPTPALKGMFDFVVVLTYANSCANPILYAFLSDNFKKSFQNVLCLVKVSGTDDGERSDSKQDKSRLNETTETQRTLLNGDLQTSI
Assay: competition binding assay, membranes of CHO cells expressing hSST-2, [125I-Tyr3]-octreotide
Details: competition with [125I-Tyr3]-octreotide; read-out: IC50 (nM) hSSTR-2
Numbered stars: 1 amine (or outer) side, 2 acyl side, 3 side chain; on linkers, the order of the positions; unused ones are H or OH. Square brackets hold non-standard residues; d marks the D form. Side chains are listed from the residue outwards. Peptide text beside a SMILES is read from it. * marks the point of attachment. Ethylenediamine = C(CN[*:2])N[*:1]; cisHyp = O=C(O)[C@@H]1C[C@H](O)CN1; Hyp = O=C(O)[C@@H]1C[C@@H](O)CN1; NHCH2CH2NMe2 = CN(C)CCN*; CO = O=C([*:1])[*:2]; Bn = c1ccc(C*)cc1
quantity: IC50 (nM)
Use nM as the unit, but write only the number.

Solved cases (4 shown):
compound="NCCCC[C@@H]1NC(=O)[C@@H](Cc2c[nH]c3ccccc23)NC(=O)[C@H](Cc2ccccc2)NC(=O)[C@@H]2C[C@@H](O)CN2C(=O)[C@H](Cc2ccccc2)NC(=O)[C@H](Cc2ccc(OCc3ccccc3)cc2)NC1=O [Example 1, Cyclo [HyPro-Phe-DTrp-Lys-Tyr(Bzl)-Phe]] (cyclo(F[Hyp]F[dW]KY(Bn)))" quantity=IC50 data_value=0.94
compound="NCCCC[C@@H]1NC(=O)[C@@H](Cc2c[nH]c3ccccc23)NC(=O)[C@H](Cc2ccccc2)NC(=O)[C@@H]2C[C@@H](OC(=O)NCCN)CN2C(=O)[C@H](Cc2ccccc2)NC(=O)[C@H](COCc2ccccc2)NC1=O [Example 31] (cyclo(F[Hyp]([CO-Ethylenediamine])F[dW]KS(Bn)))" quantity=IC50 data_value=0.8
compound="NCCCC[C@@H]1NC(=O)[C@@H](Cc2c[nH]c3ccccc23)NC(=O)[C@H](Cc2ccccc2)NC(=O)[C@@H]2C[C@H](OC(=O)NCCN)CN2C(=O)[C@H](Cc2ccccc2)NC(=O)[C@H](COCc2ccccc2)NC1=O [Example 32] (cyclo(F[cisHyp]([CO-Ethylenediamine])F[dW]KS(Bn)))" quantity=IC50 data_value=0.13
compound="CN(C)CCNC(=O)O[C@@H]1C[C@H]2C(=O)N[C@@H](Cc3ccccc3)C(=O)N[C@H](Cc3c[nH]c4ccccc34)C(=O)N[C@@H](CCCCN)C(=O)N[C@@H](COCc3ccccc3)C(=O)N[C@@H](Cc3ccccc3)C(=O)N2C1 [Example 36] (cyclo(F[Hyp]([CO-NHCH2CH2NMe2])F[dW]KS(Bn)))" quantity=IC50 data_value=1.3

Moving on to the next compound.
Incoming: Please supply the value of reported IC50 for the item NCCCC[C@@H]1NC(=O)[C@@H](Cc2c[nH]c3ccccc23)NC(=O)[C@H](Cc2ccccc2)NC(=O)[C@@H]2C[C@@H](OC(=O)NCCN)CN2C(=O)[C@H](Cc2ccccc2)NC(=O)[C@H](Cc2ccc(OCc3ccccc3)cc2)NC1=O [Example 2] (cyclo(F[Hyp]([CO-Ethylenediamine])F[dW]KY(Bn)))
Outgoing: 2.3

* * *

Molecular target: hSST-5 (Homo sapiens, UniProt P35346)
Sequence (P35346 whole entry): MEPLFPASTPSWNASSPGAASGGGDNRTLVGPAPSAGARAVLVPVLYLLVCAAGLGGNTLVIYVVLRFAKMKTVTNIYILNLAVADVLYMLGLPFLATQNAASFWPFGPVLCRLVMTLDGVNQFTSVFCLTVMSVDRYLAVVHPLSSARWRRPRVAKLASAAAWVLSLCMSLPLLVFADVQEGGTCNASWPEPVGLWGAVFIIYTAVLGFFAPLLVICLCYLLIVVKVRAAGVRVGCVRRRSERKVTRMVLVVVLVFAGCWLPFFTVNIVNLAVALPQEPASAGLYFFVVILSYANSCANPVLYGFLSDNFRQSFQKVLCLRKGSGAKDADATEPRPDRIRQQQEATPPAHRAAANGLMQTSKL
Assay: competition binding assay, membranes of CHO cells expressing hSST-5, [125I-Tyr3]-octreotide
Details: competition with [125I-Tyr3]-octreotide; read-out: IC50 (nM) hSSTR-5
Numbered stars: 1 amine (or outer) side, 2 acyl side, 3 side chain; on linkers, the order of the positions; unused ones are H or OH. Square brackets hold non-standard residues; d marks the D form. Side chains are listed from the residue outwards. Peptide text beside a SMILES is read from it. * marks the point of attachment. Ethylenediamine = C(CN[*:2])N[*:1]; cisHyp = O=C(O)[C@@H]1C[C@H](O)CN1; Hyp = O=C(O)[C@@H]1C[C@@H](O)CN1; NHCH2CH2NMe2 = CN(C)CCN*; CO = O=C([*:1])[*:2]; Bn = c1ccc(C*)cc1
The reader will find reported log10 of IC50 values listed item by item below.
Transform log10 | Measure IC50 | Unit nM

Here is how some compounds turned out for log10 of IC50.
compound="NCCCC[C@@H]1NC(=O)[C@@H](Cc2c[nH]c3ccccc23)NC(=O)[C@H](Cc2ccccc2)NC(=O)[C@@H]2C[C@@H](OC(=O)NCCN)CN2C(=O)[C@H](Cc2ccccc2)NC(=O)[C@H](Cc2ccc(OCc3ccccc3)cc2)NC1=O [Example 2] (cyclo(F[Hyp]([CO-Ethylenediamine])F[dW]KY(Bn)))" quantity="log10 of IC50" data_value=-0.34
compound="NCCCC[C@@H]1NC(=O)[C@@H](Cc2c[nH]c3ccccc23)NC(=O)[C@H](Cc2ccccc2)NC(=O)[C@@H]2C[C@H](OC(=O)NCCN)CN2C(=O)[C@H](Cc2ccccc2)NC(=O)[C@H](COCc2ccccc2)NC1=O [Example 32] (cyclo(F[cisHyp]([CO-Ethylenediamine])F[dW]KS(Bn)))" quantity="log10 of IC50" data_value=0.30
compound="NCCCC[C@@H]1NC(=O)[C@@H](Cc2c[nH]c3ccccc23)NC(=O)[C@H](Cc2ccccc2)NC(=O)[C@@H]2C[C@@H](O)CN2C(=O)[C@H](Cc2ccccc2)NC(=O)[C@H](Cc2ccc(OCc3ccccc3)cc2)NC1=O [Example 1, Cyclo [HyPro-Phe-DTrp-Lys-Tyr(Bzl)-Phe]] (cyclo(F[Hyp]F[dW]KY(Bn)))" quantity="log10 of IC50" data_value=-0.46
compound="CN(C)CCNC(=O)O[C@@H]1C[C@H]2C(=O)N[C@@H](Cc3ccccc3)C(=O)N[C@H](Cc3c[nH]c4ccccc34)C(=O)N[C@@H](CCCCN)C(=O)N[C@@H](COCc3ccccc3)C(=O)N[C@@H](Cc3ccccc3)C(=O)N2C1 [Example 36] (cyclo(F[Hyp]([CO-NHCH2CH2NMe2])F[dW]KS(Bn)))" quantity="log10 of IC50" data_value=0.65

Continue with the next compound.
Incoming: For hSST-5 (Homo sapiens, UniProt P35346), give the measured log10 of IC50 of the entry NCCCC[C@@H]1NC(=O)[C@@H](Cc2c[nH]c3ccccc23)NC(=O)[C@H](Cc2ccccc2)NC(=O)[C@@H]2C[C@@H](OC(=O)NCCN)CN2C(=O)[C@H](Cc2ccccc2)NC(=O)[C@H](COCc2ccccc2)NC1=O [Example 31] (cyclo(F[Hyp]([CO-Ethylenediamine])F[dW]KS(Bn)))
Outgoing: 0.46

* * *

Molecular target: hSST-1 (Homo sapiens)
Sequence (P30872 whole entry): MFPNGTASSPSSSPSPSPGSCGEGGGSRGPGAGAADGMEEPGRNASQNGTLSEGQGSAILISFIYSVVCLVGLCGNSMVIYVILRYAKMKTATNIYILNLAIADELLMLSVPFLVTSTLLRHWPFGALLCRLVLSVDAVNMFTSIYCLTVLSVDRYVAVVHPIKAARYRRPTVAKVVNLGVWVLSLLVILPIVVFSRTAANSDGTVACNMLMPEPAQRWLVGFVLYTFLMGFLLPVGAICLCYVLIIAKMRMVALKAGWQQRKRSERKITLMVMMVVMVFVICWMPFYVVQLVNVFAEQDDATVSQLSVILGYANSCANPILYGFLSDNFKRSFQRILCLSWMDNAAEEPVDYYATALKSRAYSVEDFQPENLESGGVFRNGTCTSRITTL
Assay: competition binding assay, membranes of CHO cells expressing hSST-1, [125I-Tyr3]-octreotide
Settings: competition with [125I-Tyr3]-octreotide; read-out: IC50 (nM) hSSTR-1
Numbered stars: 1 amine (or outer) side, 2 acyl side, 3 side chain; on linkers, the order of the positions; unused ones are H or OH. Square brackets hold non-standard residues; d marks the D form. Side chains are listed from the residue outwards. Peptide text beside a SMILES is read from it. * marks the point of attachment. Ethylenediamine = C(CN[*:2])N[*:1]; cisHyp = O=C(O)[C@@H]1C[C@H](O)CN1; Hyp = O=C(O)[C@@H]1C[C@@H](O)CN1; NHCH2CH2NMe2 = CN(C)CCN*; CO = O=C([*:1])[*:2]; Bn = c1ccc(C*)cc1
Overview of reported IC50 across a group of compounds:
Record the value in nM, omitting the unit from your answer.

compound="CN(C)CCNC(=O)O[C@@H]1C[C@H]2C(=O)N[C@@H](Cc3ccccc3)C(=O)N[C@H](Cc3c[nH]c4ccccc34)C(=O)N[C@@H](CCCCN)C(=O)N[C@@H](COCc3ccccc3)C(=O)N[C@@H](Cc3ccccc3)C(=O)N2C1 [Example 36] (cyclo(F[Hyp]([CO-NHCH2CH2NMe2])F[dW]KS(Bn)))" data_value=0.6
compound="NCCCC[C@@H]1NC(=O)[C@@H](Cc2c[nH]c3ccccc23)NC(=O)[C@H](Cc2ccccc2)NC(=O)[C@@H]2C[C@@H](OC(=O)NCCN)CN2C(=O)[C@H](Cc2ccccc2)NC(=O)[C@H](Cc2ccc(OCc3ccccc3)cc2)NC1=O [Example 2] (cyclo(F[Hyp]([CO-Ethylenediamine])F[dW]KY(Bn)))" data_value=4.6

Incoming: Entry NCCCC[C@@H]1NC(=O)[C@@H](Cc2c[nH]c3ccccc23)NC(=O)[C@H](Cc2ccccc2)NC(=O)[C@@H]2C[C@H](OC(=O)NCCN)CN2C(=O)[C@H](Cc2ccccc2)NC(=O)[C@H](COCc2ccccc2)NC1=O [Example 32] (cyclo(F[cisHyp]([CO-Ethylenediamine])F[dW]KS(Bn))) needs its IC50 filled in; supply it.
Outgoing: 3.8

Incoming: Determine from records and report IC50 for NCCCC[C@@H]1NC(=O)[C@@H](Cc2c[nH]c3ccccc23)NC(=O)[C@H](Cc2ccccc2)NC(=O)[C@@H]2C[C@@H](OC(=O)NCCN)CN2C(=O)[C@H](Cc2ccccc2)NC(=O)[C@H](COCc2ccccc2)NC1=O [Example 31] (cyclo(F[Hyp]([CO-Ethylenediamine])F[dW]KS(Bn)))
Outgoing: 0.5

Incoming: Retrieve IC50 measured for NCCCC[C@@H]1NC(=O)[C@@H](Cc2c[nH]c3ccccc23)NC(=O)[C@H](Cc2ccccc2)NC(=O)[C@@H]2C[C@@H](O)CN2C(=O)[C@H](Cc2ccccc2)NC(=O)[C@H](Cc2ccc(OCc3ccccc3)cc2)NC1=O [Example 1, Cyclo [HyPro-Phe-DTrp-Lys-Tyr(Bzl)-Phe]] (cyclo(F[Hyp]F[dW]KY(Bn))) and print it.
Outgoing: 63
